- ASSAY_PROTOCOL: Protein binding in mouse plasma
METRIC_NAME: fraction unbound

{"COMPOUND": "Cc1nnc2n1-c1ccccc1N(c1ccc(Cl)cc1)CC2", "METRIC_NAME": "fraction unbound", "VALUE_RELATION_SIGN": "=", "TEST_VALUE": 0.07}
{"COMPOUND": "Cc1nnc2n1-c1ccc(-c3cnn(C)c3)cc1N(c1ccc(Cl)cc1)CC2", "METRIC_NAME": "fraction unbound", "VALUE_RELATION_SIGN": "=", "TEST_VALUE": 0.03}
{"COMPOUND": "Cc1nnc2n1-c1ccc(-c3ccc(N)nc3)cc1N(c1ccc(Cl)cc1)CC2C (configuration not stated)", "METRIC_NAME": "fraction unbound", "VALUE_RELATION_SIGN": "=", "TEST_VALUE": 0.02}
{"COMPOUND": "Cc1noc2c1-c1ccc(-c3ccc(N)nc3)cc1N(c1ccc(C#N)cc1)CC2", "METRIC_NAME": "fraction unbound", "VALUE_RELATION_SIGN": "<", "TEST_VALUE": 0.01}
{"COMPOUND": "Cc1noc2c1-c1ccc(-c3cnn(CC(N)=O)c3)cc1N(c1ccc(C#N)cc1)CC2C (configuration not stated)", "METRIC_NAME": "fraction unbound", "VALUE_RELATION_SIGN": "=", "TEST_VALUE": 0.04}
{"COMPOUND": "Cc1nnc2n1-c1ccccc1N(c1ccc(Cl)cc1)CC2C (configuration not stated)", "METRIC_NAME": "fraction unbound", "VALUE_RELATION_SIGN": "=", "TEST_VALUE": 0.04}
{"COMPOUND": "Cc1nnc2n1-c1ccc(-c3ccc(N)nc3)cc1N(c1ccc(Cl)cc1)C[C@H]2C", "METRIC_NAME": "fraction unbound", "VALUE_RELATION_SIGN": "=", "TEST_VALUE": 0.02}
{"COMPOUND": "CCNC(=O)CC1CN(c2ccc(Cl)cc2)c2ccccc2-n2c(C)nnc21 (configuration not stated)", "METRIC_NAME": "fraction unbound", "VALUE_RELATION_SIGN": "=", "TEST_VALUE": 0.08}
{"COMPOUND": "Cc1noc2c1-c1ccccc1N(c1ccc(C#N)cc1)CC2", "METRIC_NAME": "fraction unbound", "VALUE_RELATION_SIGN": "<", "TEST_VALUE": 0.01}
{"COMPOUND": "Cc1noc2c1-c1ccc(-c3ccc(=O)n(C)c3)cc1N(c1ccc(C#N)cc1)CC2C (configuration not stated)", "METRIC_NAME": "fraction unbound", "VALUE_RELATION_SIGN": "=", "TEST_VALUE": 0.01}
{"COMPOUND": "Cc1noc2c1-c1ccc(-c3cnn(C)c3)cc1N(c1ccc(C#N)cc1)CC2CC(N)=O (configuration not stated)", "METRIC_NAME": "fraction unbound", "VALUE_RELATION_SIGN": "=", "TEST_VALUE": 0.04}
{"COMPOUND": "Cc1noc2c1-c1ccc(-c3ccc(N)nc3)cc1N(c1ccc(C#N)cc1)CC2C (configuration not stated)", "METRIC_NAME": "fraction unbound", "VALUE_RELATION_SIGN": "=", "TEST_VALUE": 0.01}
